tested on: intracellular HBV DNA; assay: Real-time PCR for intracellular HBV DNA in HepAD38 cells; type: cell-based; conditions: Hepatitis B virus, HePAD38, 65 h, 65 hours treatment
IC50 under 60 nM gets YES, anything at or over 60 nM gets NO.

INSERT INTO assay_data (compound, cat) VALUES
  ('COc1ncc(N(Cc2n[nH]c(C(F)F)c2Br)C(=O)Nc2ccc(F)c(C(F)F)c2)cn1 [Example 197]', 'YES'),
  ('N#Cc1ccc(N(Cc2cc(C(F)(F)F)[nH]n2)C(=O)Nc2ccc(F)c(Cl)c2)cn1 [Example 130]', 'NO'),
  ('COc1cc(N(Cc2n[nH]c3c2OCCO3)C(=O)Nc2ccc(F)c(Cl)c2)ccn1 [Example 71]', 'NO'),
  ('CNS(=O)(=O)c1ccc(N(Cc2n[nH]c3c2CCOC3)C(=O)Nc2ccc(F)c(Cl)c2)cc1 [Example 23]', 'NO');

Task: Strictly below 60 nM: is that where IC50 of COc1ccc(N(Cc2cc(C(C)C)[nH]n2)C(=O)Nc2ccc(F)c(Cl)c2)cn1 [Example 58] sits?
Output: NO

Task: Strictly below 60 nM: is that where IC50 of CC12CC(N(Cc3cc(C(F)(F)F)[nH]n3)C(=O)Nc3ccc(F)c(Cl)c3)(C1)C2 [Example 27] sits?
Output: NO

Task: Strictly below 60 nM: is that where IC50 of COc1ncc(N(Cc2n[nH]c(C(F)F)c2Br)C(=O)Nc2ccc(F)c(Cl)c2)cn1 [Example 98] sits?
Output: YES

Task: Strictly below 60 nM: is that where IC50 of CS(=O)(=O)Nc1ccc(N(Cc2n[nH]c3c2CCCO3)C(=O)Nc2ccc(F)c(Cl)c2)cn1 [Example 18] sits?
Output: NO

---

system: intracellular HBV DNA; experiment: Real-time PCR for intracellular HBV DNA in HepAD38 cells; assay type: cell-based; conditions: Hepatitis B virus, HePAD38, 65 h, 65 hours treatment
pIC50: −log10 of the molar value.
Quick rule: pIC50 of at least 7 means Met, below that means Not met.

INSERT INTO measurements (structure, cat) VALUES
  ('COc1cc(N(Cc2cc(C(F)(F)F)[nH]n2)C(=O)Nc2ccc(F)c(C(F)F)c2)cnn1', 'Met'),
  ('COc1ncc(N(Cc2cc(C(F)(F)F)[nH]n2)C(=O)Nc2ccc(F)c(C(F)F)c2)cn1', 'Met'),
  ('COc1ncc(N(Cc2cc(C(F)F)[nH]n2)C(=O)Nc2ccc(Cl)nc2Cl)cn1', 'Not met'),
  ('COc1ccc(N(Cc2nn(C)c3c2COCC3)C(=O)Nc2ccc(F)c(Cl)c2)cc1', 'Not met');

Task: API: above_or_equal(metric=pIC50, cutoff=7) for item "COc1cc(N(Cc2n[nH]c3c2COCC3)C(=O)Nc2ccc(F)c(Cl)c2)ccn1"
Output: Met

Task: API: above_or_equal(metric=pIC50, cutoff=7) for item "COc1ncc(N(Cc2cc(C(F)(F)F)[nH]n2)C(=O)Nc2cccc(C(F)F)c2)cn1"
Output: Met

Task: API: above_or_equal(metric=pIC50, cutoff=7) for item "COc1ccc(N(Cc2n[nH]c(C(F)F)c2OC)C(=O)Nc2ccc(F)c(Cl)c2)cn1"
Output: Met
